System: MDA-MB-435 melanoma
Assay: NCI-60 one-dose screen, 48 h (100 = growth as untreated, 0 = no growth, -100 = all killed)
Conditions: 10 µM unless noted
About 83,000 compounds went through this panel and 20% of them were active in at least one assay; those are over-represented in the sample as a whole.
Provide the reported growth of each item.
Numeric answer only, unit % assumed.

Entry NC(CC(=O)O)C(=O)OCc1ccccc1 (stereo not drawn) needs its growth filled in; supply it.
86.3

Give the measured growth for Cl/C(=N\Nc1ccccc1)c1ccccc1
80.6

Return reported growth. Input molecule: OC(c1cccc(C(F)(F)F)c1)c1cnccc1NC1CCCCCC1 (stereo not drawn)
32.6

Quick one: give measured growth for Cc1cc(Nc2nc(N3CCNCC3)nc3ccccc23)n[nH]1
73

Give recorded growth. C/C=C/C(N)=O
96.4

Indicate its recorded growth; the molecule in question is Cc1nn(-c2nc3ccccc3[nH]2)c2c1C(c1ccc3c(c1)OCO3)CC(=O)N2 (stereo not drawn)
5.5

Note down growth recorded for COc1ccc(-c2cc(-c3cccnc3)nc3sc4c(=O)n(-c5ccc(C)cc5)nnc4c23)cc1OC
99.3

# return recorded growth for input Fc1ccc(Cc2ccc(F)cc2)cc1
114

Report growth, nothing else, for this molecule: Cn1cc(-c2csc(-c3cn(C)c4ncccc34)n2)c2ccccc21
-40.1

Output measured growth for this item: COc1ccc2nc3cc(Cl)ccc3c(N3CCN(c4nccc(Nc5ccc(Cl)cc5)n4)CC3)c2c1
78.7

Respond only with growth recorded for O=C(Nc1nc(-c2ccccc2)cc(-c2ccc(Cl)cc2)n1)c1ccncc1
96.8

Provide one value: measured growth of COc1ccc(-c2cn3c(ccc4ccccc43)n2)cc1
114

For the molecule COc1ccc(/C=c2/c(=O)[nH]c3nc4sc(C)c(C)c4c(=O)n23)cc1 , give its reported growth.
86.8

Provide one value: measured growth of COc1cc(-c2cnc3nonc3n2)c(OC)c2c1OCO2
111

Please give the documented growth of COc1ccc(/C=C/C(=O)c2c(O)c(C)c(O)c3c2OC2=CC(O)=C(C(C)=O)C(=O)[C@]23C)cc1
-66.9

Answer with reported growth of CC(C)Oc1nc2c(c(=O)n(C)c(=O)n2C)n1C
105

// Input: Cc1cc(Nc2nc(N3CCOCC3)nc3ccccc23)n[nH]1 . Output its growth only.
57.4

Return the recorded growth value; entry: COc1ccc(-c2nn(-c3ccccc3)cc2/C=C2\SC(=O)NC2=O)cc1
108

Supply reported growth belonging to this molecule: CCC(c1ccccc1)C(CC)c1ccc(O)c(O)c1 (stereo not drawn)
95

Recall and state the measured growth for COC(=S)SCN(CSC(=S)OC)c1ccc(Cl)cc1 .
95.3

State its growth for this molecule: COc1ncc(-c2ccc3ncnc(Nc4cccc(Cl)c4)c3c2)cc1NS(C)(=O)=O
41.9

// Input: Cc1ccc(/C=C2\Oc3cc(OCC(=O)c4ccc(Cl)cc4)ccc3C2=O)cc1 . Output its growth only.
104

Write down growth measured for item CCN(CC)c1ccc(/C=C/C2=[N+](C)c3ccccc3C2(C)C)cc1
-1.89

###

Tested on: OVCAR-8 ovarian
Assay: NCI-60 one-dose screen, 48 h (100 = growth as untreated, 0 = no growth, -100 = all killed)
Conditions: 10 µM unless noted
The panel holds about 83,000 compounds, 20% with a hit somewhere; the sample as a whole holds those more often.
Classification scheme (growth): range 1 (below 50%), range 2 (50% to below 90%), range 3 (90% or more)

The entry to classify is CCN(CC)CCCC(C)Nc1ccnc2c(OC)cccc12 (stereo not given) ; which class holds it?
range 3

Form: Item = C=C1C(=O)O[C@H]2[C@H]1CC/C(Cn1cc(Cn3ccc4ccccc43)nn1)=C\CC[C@@]1(C)O[C@@H]21 ; Class = ?
range 1

Pick a category. Item: C=C1CCC2C3(C)COC(c4cccc(Cl)c4)OC3CCC2(C)C1/C=C/C1=CCOC1=O (stereo not given)
range 2

Exercise: read the entry C[C@@H]1CC[C@@H]2[C@@H]1[C@H](OC(=O)/C=C/c1ccccc1)[C@]1(c3ccccc3)C[C@@H](OC(=O)CO)[C@@]2(C)O1 and state which class it falls under.
range 2

Class for COc1ccc(S(=O)(=O)NCCCNc2cc(-c3c(-c4cccc(OC)c4)nc4sccn34)ccn2)cc1 ?
range 1

Please report the category associated with Cc1cc(Nc2nc(N3CCOCC3)nc3ccccc23)n[nH]1 , nothing else.
range 3

Which class is correct for the following compound? COc1nc2c(cc1S(=O)(=O)c1ccccc1)CCc1c-2cnn1Cc1ccccc1
range 2

Bin? CC(=O)Nc1ccc2c(c1)c(NC(C)=O)nn2C(=O)Nc1ccc(Cc2ccccc2)cc1
range 2

// bin(item) where item = O=C(CN1CCN(c2cc3c(cc2F)c(=O)c(C(=O)O)cn3C2CC2)CC1)Nc1nc(-c2ccc(Cl)cc2)cs1
range 1

For the record Cc1ccc(N)cc1F , report the class its growth corresponds to.
range 3

Category of O=c1ccc2cc3ccccc3cc2[nH]1 :
range 3

Exam item: assign N=c1c2ccccc2nc2n1CCCCC2 to the correct category.
range 3

# classify by growth band: CCOC(=O)C(C#N)C1CCCCC1 (stereo not given)
range 3

Tag the class for COc1ccc(N(Cc2cc(OC)c(OC)c(OC)c2)C2OC(=O)c3ccccc32)cc1 (stereo not given)
range 1

Class? Entry: O=C(CN1CCN(c2cc3c(cc2F)c(=O)c(C(=O)N/N=C/c2ccccc2)cn3C2CC2)CC1)N/N=C\c1ccccc1
range 2

Band assignment needed for NCCN1CCN(c2nccc(-c3ccc4ccccc4c3)n2)CC1 please.
range 2

Exam item: assign CCOC(=O)c1c2c(n3ccc(NC(=O)CCN4CCOCC4)cc13)C(=O)c1ncccc1C2=O to the correct category.
range 1

For COc1cnc2c(c1)C(=O)c1c-2n(CCCN2CCNCC2)c(=O)c2cc([N+](=O)[O-])ccc12 , which growth bin applies?
range 1
